tested on: UO-31 renal; experiment: NCI tumour cell line growth inhibition, 48 h
TGI: recorded values
Experimental Endpoint: TGI

Compound	Result
NCCCCC(NC(=O)C(N)Cc1ccc(O)cn1)C(=O)O (stereo unspecified)	> 100 µM
COc1ccc(-c2onc(N)c2-c2cc(OC)c3c(c2)OCO3)cc1	> 100 µM
Cc1ccc(-c2nc3nc(-c4ccccc4)nc(N4CCCNCC4)c3o2)cc1	2.96 µM
O=C(O)CCC(=O)Nc1ccc2ccccc2c1	> 100 µM
C/C(CC(=O)Nc1cc(C)ccc1C)=N\NC(=O)c1ccncc1	> 100 µM
CC(C)(C)C(=O)OCOP(=O)(OCOC(=O)C(C)(C)C)OCC1OC(n2ccc(=O)[nH]c2=O)C(N=[N+]=[N-])C1O (stereo unspecified)	4.58 µM

====

test system: SNB-19 CNS; assay: NCI tumour cell line growth inhibition, 48 h; in the data active = GI50 below about 0.43 µM; inactive = the rest
Outcomes: YES for active, NO for inactive

Compound	System	Assigned Label
OCCCNc1nc(=S)[nH]c2[nH]ncc12	SNB-19 CNS	NO
C=C(C[C@](O)(C(=O)/C=C/c1ccc(Cl)cc1)C(=O)OC)c1ccccc1	SNB-19 CNS	NO
NC(=O)NS(=O)(=O)c1ccc(N2N=C(C(F)(F)F)CC2c2cc(C(F)(F)F)cc(C(F)(F)F)c2)cc1 (stereo unspecified)	SNB-19 CNS	NO
O=C(O)CCNC1CCCCC1	SNB-19 CNS	NO
O=C1C(Cl)=C(NCCN2CCOCC2)C(=O)c2ncccc21	SNB-19 CNS	NO
N#CC(C#N)=C1Nc2ccccc2S1	SNB-19 CNS	NO
Cc1cc2c(cc1Cl)SC1=NN(C)S(=O)N1S2(=O)=O (stereo unspecified)	SNB-19 CNS	NO
CS(=O)(=O)CCNCc1ccc(-c2ccc3ncnc(Nc4ccc(OCc5ccccc5)cc4)c3c2)o1	SNB-19 CNS	NO
C[N+]1=C(/C=C/c2ccc(O)c3ncccc23)C(C)(C)c2ccccc21	SNB-19 CNS	NO
CS(=O)(=O)c1ccc(-n2nc(C(F)(F)F)cc2OC2CCCC2)cc1	SNB-19 CNS	NO
COc1ccc2c(c1)C(=O)c1c-2n(CCCn2ccnc2)c(=O)c2cc([N+](=O)[O-])ccc12	SNB-19 CNS	YES

====

system: HCC-2998 colon; assay: NCI tumour cell line growth inhibition, 48 h
TGI: recorded values
Experimental Endpoint: TGI

Compound	Result
COc1cc(Nc2nc3ccccc3nc2-c2cccs2)cc(OC)c1OC	> 100 µM
O=c1c2ccccc2[nH]c2c(Cl)cc(Cl)c(NC3CCCCC3)c12	89.9 µM
Cc1cc(Cl)cc2c1NC(=O)C2(O)CC(=O)c1ccco1 (configuration not stated)	> 100 µM
COC(=O)C1=C(O)C(C(=O)OC)[C@]2(O)[C@H](C(=O)OC)[C@H]1C[C@@H](c1ccc(OC)c(OC)c1)[C@H]2C(=O)OC (some centres not stated)	27.1 µM
CC(=O)Oc1cc(Cl)c(C)c2c1[C@H]1CC[C@]3(C)[C@@H](OC(C)=O)CC[C@H]3[C@@H]1CC2	> 100 µM
N#CC12CNCC1CN=N2 (configuration not stated)	> 100 µM
CCOC(=O)c1oc2cc3c(c4c2c1-c1ccccc1N4C)C=CC(C)(C)O3	> 100 µM
COc1ccc(-c2nc(-c3nc4ccc(Cl)cc4[nH]3)c3ccccn23)cc1	> 100 µM
CCCCCCCCn1ccc2cc(NC(=O)Cn3cc(CN4CCCC4)nn3)ccc21	3.17 µM
COc1ccc2c(c1)C(=O)c1c-2n(CCCn2ccnc2)c(=O)c2cc([N+](=O)[O-])ccc12	0.267 µM
CCC(C)(C)C1CCC2c3c([nH]c4ccccc34)C3C(=O)N(c4ccc(OC)cc4)C(=O)C3C2C1 (configuration not stated)	40.5 µM
Ic1ccc2c(c1)N(c1ccccc1)c1cc(N=c3ccc4nc5ccc(I)cc5n(-c5ccccc5)c-4c3)ccc1N2	> 100 µM
CC(=N)OC1CC2CCC1(C)C2(C)C (configuration not stated)	> 100 µM
COc1ccc2c(c1)C(=O)Cc1ccccc1CC2	> 100 µM
Cc1ccc(C(=O)N(CCCN)C(c2oc3cc(Cl)ccc3c(=O)c2Cc2ccccc2)C(C)C)cc1 (configuration not stated)	1.58 µM
COc1ccc(CC2CCc3nc(N)nc(N)c3C2)cc1OC (configuration not stated)	> 47 µM
O=C1Nc2ccccc2C1(c1ccc(O)cc1)c1ccc(O)cc1	27 µM
O=C(CCN(C(=O)O)S(=O)(=O)c1ccc(NC(=O)c2ccccc2)cc1)NC1CCCCC1	> 100 µM
CCOC(=O)/C(=C\c1ccccc1)C(=O)O	> 100 µM
CCC/C=C/c1cc2c(cc1O)CC[C@@H]1[C@@H]2CC[C@]2(C)[C@@H](O)CC[C@@H]12	38.8 µM
Cn1c2ccccc2c2ccc3c(c21)C(=O)c1ccccc1C3=O	> 100 µM
CC[C@@]1(c2ccccc2)C2=C(CC(C)(C)CC2=O)Nc2[nH]ncc21	> 100 µM
Cc1ccc(S(=O)(=O)c2ccsc2NC(=O)C(F)(F)F)cc1	> 100 µM
C/C(CC(=O)Nc1cc(C)ccc1C)=N\NC(=O)c1ccncc1	> 100 µM
O=C(O)/C=C(\c1nc2ccc([N+](=O)[O-])cc2[nH]1)c1cc(Cl)ccc1O	29.4 µM
Cc1ccc2c(c1)Sc1c(ccc3ccccc13)N2	> 100 µM
O=c1[nH]nc(-c2ccccc2)n1-c1ccncc1	> 100 µM
C#CCNC(=O)c1cccc2c1cc(C)n2-c1nc2c(c(NCc3ccccc3)n1)CCCC2	0.0331 µM
Oc1c2cc(Cl)cc1COCc1cc(Cl)cc(c1O)COCc1cc(Cl)cc(c1O)COC2	> 100 µM
C[N+]1=C(/C=C/c2ccc(O)c3ncccc23)C(C)(C)c2ccccc21	6.73 µM
CC(SC(=S)N1CCOCC1)c1cc2oc(=O)n(C)c2cc1Cl (configuration not stated)	> 100 µM
Cc1cc2cc3c(cc2c(-c2ccc([N+](=O)[O-])cc2)n1)OCO3	> 100 µM
C/C(O)=C(\N=O)C(=O)Nc1ccc(Cl)cc1Cl	> 100 µM
CCc1ccccc1NC(=O)C1=C(C)NC(C)=C(C(=O)Nc2ccccc2CC)C1c1ccc2c(c1)OCO2	41 µM
CC1(C)OC2=C(CC1Br)C(=O)C(=O)c1ccccc12 (configuration not stated)	3.12 µM
c1ccc(-c2nc3ccccc3n3c(CN4CCCCC4)nnc23)cc1	> 100 µM
O=C1c2ccccc2C(=O)c2c1cc(S(=O)(=O)O)c(O)c2O	> 100 µM
COC(=O)Nc1nc2ccc(Oc3ccc(NC(=O)Nc4cc(C(F)(F)F)ccc4F)cc3)cc2s1	> 25 µM
CN(C)CCNC(=O)c1cccc2ccc(-c3ccncc3)nc12	10.2 µM
NC1=NC(c2ccccc2)CC(c2cc(Cl)ccc2O)=N1 (configuration not stated)	29.4 µM
N#Cc1c(=O)n(-c2ccccc2)c(O)c2c(N)n[nH]c12	> 100 µM
CCC[CH2][Sn]1([CH2]CCC)[O]C(=O)CN=Cc2c(ccc3ccccc23)[O]1	2.02 µM

src = PubChem BioAssay (NCI)
